# Test system: SK-OV-3
# PROTOCOL SUMMARY: NCI tumour cell line growth inhibition, 48 h
The source made the active and inactive calls. Rule as the data show it: active = GI50 up to about 1.1 µM and inactive = higher.
ENDPOINT: GI50

I have this compound here, `CC1(C)C=C(N2CCN(C3=CC(C)(C)NC(C)(C)C3)CC2)CC(C)(C)N1` , and I need its recorded GI50.
> 100 µM (inactive)

Queued: `CCOC(=O)/C(=C\c1ccc(OCc2ccccc2)c(OC)c1)C(=O)c1ccccc1`
64.9 µM (inactive)

Queued: `N=c1oc2cc(O)ccc2cc1C(=O)Nc1ccccn1`
37.2 µM (inactive)

Queued: COC(=O)[C@@H](N1C(=O)c2ccccc2C1=O)C1(C)CC(Cl)=NO1 (stereo partly specified)
33.8 µM (inactive)

Queued: `CC1=CC(=O)N(n2c(C)n[nH]c2=O)C1=O`
> 100 µM (inactive)

Queued: `NNC(=O)Cn1c2ccc(Br)cc2c2nc3ccccc3nc21`
43.7 µM (inactive)

* * *

# Tested on: HCC 2998
# PROTOCOL SUMMARY: NCI tumour cell line growth inhibition, 48 h
The source made the active and inactive calls. Rule as the data show it: active = GI50 up to about 1.1 µM and inactive = higher.
Pick from 1 for active, -1 for inactive when you respond.

What outcome does the record of this test show for COc1cc2c(cc1OC)C1CN3CCCC3C(O)C1c1cc(OC)c(OC)cc1-2 (stereo unspecified) ?
-1

Queued: `Cc1ccc(Oc2ccc(C)cc2[N+](=O)[O-])cc1`
-1

Queued: `O=CC(=C(I)I)c1ccccc1`
-1

Queued: `COc1cccc2c1NC(=O)Cc1c-2[nH]c2ccccc12`
-1

Queued: O=C(O)C1[C@@H](C(=O)O)C1(Br)CBr (stereo partly specified)
-1

Queued: `O=C(/C=C/c1ccccc1)CCC1C(=O)NC(=S)NC1=O`
-1

Queued: COc1cc(C2C3=C(COC3=O)OC(C)(C)Oc3cc4c(cc32)OCO4)cc(OC)c1OC (stereo unspecified)
1

Queued: `COc1cc(/C=C/c2ccccn2)cc(OC)c1OC`
-1

Queued: CC(C)=CCc1c(O)ccc2c1OC1c3ccc(O)c(CC=C(C)C)c3OCC21 (stereo unspecified)
-1

Queued: `Cc1ccccc1NC(=S)N/N=C1\C(=O)Nc2ccccc21`
-1

Queued: CCCCCCCCCCCCCCCCCC(=O)OCC1OC(OC)C(NC(=O)N(CCCl)N=O)C(O)C1O (stereo unspecified)
-1

Queued: CCOC(=O)COc1ccccc1/C=C1\CCC(CN(C)C)C1=O (stereo unspecified)
-1

Queued: CC1(C)S[C@@H]2[C@H](NC(=O)CCC[C@@H](N)C(=O)O)C(=O)N2[C@H]1C(=O)O [ADICILLIN]
-1

Queued: CC(C)c1ccc2c(c1)C=C1OC(=O)[C@]3(C)CCC[C@@]2(C)C13 (stereo partly specified)
-1

Queued: `CSc1ccc2c(c1)c(CCN)c(C)n2Cc1ccccc1Cl`
1

Queued: `CCOc1ccc(NC2=CC(=O)C(=O)c3ccccc32)cc1`
-1

Queued: CN(C)CC1(Cc2ccccc2)CCC(Cc2ccccc2)C1=O (stereo unspecified)
-1

Queued: `CCO/C=C1\SC(=S)N(c2ccc(OCC)cc2)C1=O`
-1

Queued: `Nn1c(=O)n(Cc2ccccc2)n(-c2ccccc2)c1=O`
-1

Queued: `O=C(CSc1nc2ccc([N+](=O)[O-])cc2s1)c1ccc2ccccc2c1`
-1

Queued: `CN(C)CCNC(=O)c1ccc(Cl)c2c(Nc3ccc(S(=O)(=O)N=C(N)N)cc3)c3ccccc3nc12`
-1

Queued: `O=C(O)CN(CC(=O)O)Cc1ccn(-c2cccc(-n3ccc(CN(CC(=O)O)CC(=O)O)n3)n2)n1`
-1

Queued: `CCCCCCC(=O)OC[n+]1ccc(-c2c(COC(=O)NC(C)C)c(COC(=O)NC(C)C)c3n2CCC3)cc1`
-1

Queued: `CCOC(=O)[C@H](O)[C@@H](O)C(=O)NCc1ccc(C(=O)c2ccccc2)cc1`
-1

Queued: `Nc1nc(N)c2nc(CNc3ccc(C(=O)O)cc3)[nH]c2n1`
-1

Queued: COC(=O)C(C(=O)C(=O)NC1Nc2ccc(C)cc2S1)c1nc2ccc(Cl)cc2nc1O (stereo unspecified)
-1

Queued: `[O-]c1on[n+]2c1c(Nc1ccc(Cl)cc1)nc1ccccc12`
-1

Queued: `COc1cc(/C=C2\[C@@H]3NC(Cc4c(OC)c(C)c(OC)c(OC)c43)C(=O)N2Cc2ccccc2)c(OC)c(C)c1OC`
-1

Queued: `Cc1c(C)c2c(c(N)c1C#N)C(=O)N(Cc1ccc(S(N)(=O)=O)cc1)C2=O`
-1

Queued: `CC1=NN(C(=O)c2ccccc2O)C(=O)/C1=C/c1ccccc1O`
-1

Queued: `CCOC(=O)Nc1ccc(S(=O)(=O)OC)cc1.CCOC(=O)Nc1ccc(S(=O)(=O)OC)cc1.NC(=O)NCCO`
-1

Queued: CC12CCC3C(CCC4(O)C=CCCC34C=O)C1(O)CC(O)C2c1ccc(=O)oc1 (stereo unspecified)
1

Queued: CC(C)(C)N(Cc1ccc2c(c1)OCO2)C(=O)/C=C\[S+]([O-])c1ccccc1 (stereo unspecified)
-1

Queued: `COC(=O)C1=C(C(=O)OC)SC(=C(/N=N/c2ccccc2)c2ccccc2)S1`
-1

Queued: `N#CI1OC(C(F)(F)F)(C(F)(F)F)c2ccccc21`
-1

Queued: `CN1C(=N\S(=O)(=O)c2ccc(Cl)cc2)/C(=N/N=P(c2ccccc2)(c2ccccc2)c2ccccc2)c2ccccc21`
-1

Queued: `CC(=O)Oc1cc(Cl)c(C)c2c1[C@H]1CC[C@]3(C)[C@@H](OC(C)=O)CC[C@H]3[C@@H]1CC2`
-1

Queued: CC1SC(c2ccccc2)N(Nc2c3ccccc3nc3ccccc23)C1=O (stereo unspecified)
-1

Queued: `CN(C)C(=O)O/N=C1/C(=C2/C(=O)Nc3ccccc32)Nc2ccccc21`
-1

Queued: Cc1cc(Cl)ccc1NC(=O)CCCC(=O)C(C(=O)c1ccccc1)c1ccccc1 (stereo unspecified)
-1

Queued: `O=Cc1c2ccccc2n2ccc3c4ccccc4[nH]c3c12`
-1

* * *

# Test system: HOP-62
# PROTOCOL SUMMARY: NCI tumour cell line growth inhibition, 48 h
The source made the active and inactive calls. No stated cut-off is given here; in the data, active = GI50 up to about 1.1 µM and inactive = higher.
For each record, write down the corresponding GI50.

I have this compound here, `CSc1nc(-c2cc3c(c(SC)n2)CCCCC3)cc2c1CCCCC2` , and I need its recorded GI50.
56.9 µM (inactive)

Queued: `O=C(Oc1ccc(S(=O)(=O)F)cc1F)c1ccccc1Cl`
34.8 µM (inactive)

Queued: `O=C(N/C(=C\c1ccccc1)c1nc2ccccc2c(=O)o1)c1ccccc1`
> 52.5 µM (inactive)

Queued: `CC1(C)OC(C(N)=O)=C(C(N)=O)O1`
> 100 µM (inactive)

Queued: CC1CCCP(=O)(c2ccccc2)CC1 (stereo unspecified)
> 100 µM (inactive)

Queued: COc1ccc(CN2C(=O)C(Cc3cc(OC)c(OC)c(C)c3OC)NC(=O)/C2=C/c2cc(OC)c(OC)c(C)c2OC)cc1 (stereo unspecified)
50.9 µM (inactive)

Queued: CCOc1ccccc1NC(=O)CC1SC(Nc2ccc([N+](=O)[O-])cc2)=NC1=O (stereo unspecified)
18.5 µM (inactive)

Queued: `O=C1c2cccc3c2C(=O)c2c(cccc21)OCCOCCOCCOCCO3`
> 100 µM (inactive)

Queued: `Brc1cc2c(cc1C1SCCS1)OCO2`
> 100 µM (inactive)

Queued: `NCc1nnn(Cc2ccccc2)c1N`
> 100 µM (inactive)

Queued: `N#Cc1c(-c2ccccc2)cc(Nc2cccc(C(F)(F)F)c2)n2c1nc1ccccc12`
1.77 µM (inactive)

* * *

# Tested on: A498
# PROTOCOL SUMMARY: NCI tumour cell line growth inhibition, 48 h
The source made the active and inactive calls. Cut-off read from the data, not from the text of the source: active = GI50 up to about 1.1 µM and inactive = higher.
ENDPOINT: GI50

I have this compound here, `Cc1cnc2nc(-c3ccc(F)cc3)cc(O)c2c1` , and I need its recorded GI50.
25.4 µM (inactive)

Queued: C[C@]12CC[C@H](O)CC1=CC[C@@H]1C2CC[C@]2(C)C(=O)NC(=O)CC12 (stereo not given in full)
> 100 µM (inactive)

Queued: `c1c(N2CCOCC2)s[s+]c1N1CCOCC1`
> 100 µM (inactive)

Queued: COC(=O)C1CC2(c3ccccc3)C(=O)c3ccccc3N2O1 (stereo not given)
> 100 µM (inactive)

Queued: `CC(C)OP(=O)(OC(C)C)/C(C#N)=C/c1ccco1`
> 100 µM (inactive)

Queued: `CCOC(=O)/C=C\C(C#N)(C#N)/N=C/c1ccsc1`
19 µM (inactive)

Queued: COc1ccc2c3c1OC1C(OC)(OC)C=C[C@@]4(Br)[C@@H](C2)N(CC2CC2)CC[C@]314 (stereo not given in full)
> 100 µM (inactive)

Queued: `N#Cc1c2c(c(Cl)n3c1nc1ccccc13)CCCC2`
11.4 µM (inactive)

Queued: COC(=O)C1(C)CC2C(C)(CCC3(C)C4=CC=C5C(=CC(=O)C(O)=C5C)C4(C)CCC23C)CC1O (stereo not given)
1.93 µM (inactive)

Queued: `COc1cc([N+](=O)[O-])c(OC)c2c(Nc3ccc(S(=O)(=O)O)c4cc(S(=O)(=O)O)cc(S(=O)(=O)O)c34)cc(C)nc12`
> 100 µM (inactive)

Queued: Nc1nc(Cl)c(N)c(NCC2(CO)CCC(CCc3ccccc3)C2)n1 (stereo not given)
14.6 µM (inactive)

Queued: `Nn1c(Cc2ccc(Cl)cc2)n[nH]c1=O`
> 100 µM (inactive)

Queued: Nc1nc(N)c2c(n1)NC(c1ccccc1)CC(/C=C/c1ccc(Cl)cc1)=N2 (stereo not given)
15.4 µM (inactive)

Queued: `Cc1c(C(=O)O)oc2ccc([N+](=O)[O-])cc12`
> 100 µM (inactive)

Queued: COc1cc(OC)c(CSCC(NC(=O)OCC2c3ccccc3-c3ccccc32)C(=O)O)c(OC)c1 (stereo not given)
> 10 µM (inactive)

Queued: `N#C/C(C(=O)Nc1ccc(Cl)cc1)=C(/N)N1CCOCC1`
> 100 µM (inactive)

Queued: `COC(=O)CCCC(=O)NC1=C(NCc2ccccc2)C(=O)c2ccccc2C1=O`
> 100 µM (inactive)

Queued: `COc1cc2c[n+](C)c3c(c2cc1OC)Cc1cc2c(cc1-3)OCO2`
> 100 µM (inactive)

Queued: `Cc1ccc(Oc2ccc(C)cc2[N+](=O)[O-])cc1`
> 100 µM (inactive)

Queued: O=C(NN1C(=O)CSC1c1ccc(Cl)c(Cl)c1)c1ccncc1 (stereo not given)
29.9 µM (inactive)

Queued: `N#CI1OC(C(F)(F)F)(C(F)(F)F)c2ccccc21`
37.4 µM (inactive)

Queued: CCOC(=O)C(C)NC(=O)N(C)C12CC3CC(CC(C3)C1)C2 (stereo not given)
116 µM (inactive)

Queued: CC1=CC=CC(C)(C)CC1(O[Si](C)(C)C)C(F)(F)F (stereo not given)
> 100 µM (inactive)

Queued: `O=C1C=Cc2cscc21`
> 100 µM (inactive)

Queued: CC1COC(C)(C)P(=O)(c2ccccc2)C1 (stereo not given)
> 100 µM (inactive)

Queued: `CCc1cccc(=O)c([O-])c1.CCc1cccc(=O)c([O-])c1.[Bi+3].[Cl-]`
15 µM (inactive)

Queued: `COc1ccccc1OCC(=N/NC(=O)c1ccncc1)/N=C/c1cccnc1`
> 100 µM (inactive)

Queued: `CCN(CC)CCn1ncc2c3c(=O)c4cccnc4n(CCN(CC)CC)c3ccc21`
> 10 µM (inactive)

Queued: COc1cc([C@@H]2c3cc4c(cc3[C@H](OC3OC5COC(C(C)C)OC5C(O)C3O)C3COC(=O)[C@@H]32)OCO4)cc(OC)c1OC (stereo not given in full)
2.89 µM (inactive)

Queued: `Br[Se]c1ccccn1`
17.9 µM (inactive)
